This section presents compounds with their documented Dmax values.
Target: SMARCA2 (Homo sapiens, UniProt P51531)
Sequence (P51531 whole entry): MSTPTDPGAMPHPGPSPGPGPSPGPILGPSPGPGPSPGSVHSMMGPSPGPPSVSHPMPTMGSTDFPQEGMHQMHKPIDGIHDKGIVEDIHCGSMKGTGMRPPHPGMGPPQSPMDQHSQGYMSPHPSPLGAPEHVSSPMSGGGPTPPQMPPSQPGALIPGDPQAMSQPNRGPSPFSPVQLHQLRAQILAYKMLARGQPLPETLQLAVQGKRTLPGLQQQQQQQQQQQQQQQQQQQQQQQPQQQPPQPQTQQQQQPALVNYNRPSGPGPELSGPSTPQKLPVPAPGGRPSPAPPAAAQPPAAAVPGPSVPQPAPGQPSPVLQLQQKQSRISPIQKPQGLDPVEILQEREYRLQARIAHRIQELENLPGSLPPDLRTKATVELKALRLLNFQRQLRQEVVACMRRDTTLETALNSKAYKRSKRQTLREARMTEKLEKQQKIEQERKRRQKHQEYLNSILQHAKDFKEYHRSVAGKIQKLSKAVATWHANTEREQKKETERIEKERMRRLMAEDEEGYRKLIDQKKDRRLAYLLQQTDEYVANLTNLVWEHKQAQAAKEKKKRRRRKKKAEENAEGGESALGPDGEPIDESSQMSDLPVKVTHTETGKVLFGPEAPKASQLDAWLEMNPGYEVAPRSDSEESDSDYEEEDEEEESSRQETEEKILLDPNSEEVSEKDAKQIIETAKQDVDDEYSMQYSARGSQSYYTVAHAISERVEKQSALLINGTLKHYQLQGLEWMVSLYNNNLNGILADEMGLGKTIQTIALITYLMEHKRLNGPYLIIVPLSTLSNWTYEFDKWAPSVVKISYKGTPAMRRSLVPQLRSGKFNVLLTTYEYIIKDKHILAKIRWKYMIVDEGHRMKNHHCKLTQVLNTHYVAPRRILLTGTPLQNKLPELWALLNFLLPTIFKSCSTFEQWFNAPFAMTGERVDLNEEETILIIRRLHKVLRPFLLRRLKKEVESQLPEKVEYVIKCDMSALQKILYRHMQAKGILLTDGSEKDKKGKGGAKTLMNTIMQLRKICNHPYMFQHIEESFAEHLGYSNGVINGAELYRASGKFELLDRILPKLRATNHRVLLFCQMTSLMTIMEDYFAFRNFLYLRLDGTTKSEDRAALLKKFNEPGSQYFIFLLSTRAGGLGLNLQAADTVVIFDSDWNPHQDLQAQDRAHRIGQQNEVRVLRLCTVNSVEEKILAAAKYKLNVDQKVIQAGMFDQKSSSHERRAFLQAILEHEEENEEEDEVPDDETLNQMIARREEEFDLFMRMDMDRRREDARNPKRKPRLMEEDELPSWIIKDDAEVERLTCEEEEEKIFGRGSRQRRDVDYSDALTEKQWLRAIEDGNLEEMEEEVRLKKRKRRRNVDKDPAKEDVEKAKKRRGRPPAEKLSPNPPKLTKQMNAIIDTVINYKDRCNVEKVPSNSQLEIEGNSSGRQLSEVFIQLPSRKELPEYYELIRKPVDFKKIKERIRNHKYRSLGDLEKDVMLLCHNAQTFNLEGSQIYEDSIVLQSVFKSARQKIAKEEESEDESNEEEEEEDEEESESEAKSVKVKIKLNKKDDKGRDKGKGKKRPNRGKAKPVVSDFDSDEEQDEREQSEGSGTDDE
Assay: MSD SMARCA2 degradation in A549 cell line
Format: cell-based
Conditions: A549, A549 cells, 24 h
Procedure: Example 10. MSD SMARCA2 Degradation in A549 Cell Line Cells were seeded into 96-well plates (A549 cells: 2×10^4 cells/well/100 ul media) and incubated overnight. […] The MSD plate was washed three times with 150 uL/well of TBST and 150 ul/well of 2× MSD reading buffer diluted from 4× (MSD, R92TC-2) with water was added. Lastly, the MSD instrument was read. […]

Observe how each entry below is paired with its result.
C#Cc1ccc(CNC(=O)[C@@H]2C[C@@H](O)CN2C(=O)[C@@H](NC(=O)[C@H]2CCC3(CC2)C[C@H](N2CCC(c4cnc(N5CCN6c7cc(-c8ccccc8O)nnc7NC[C@H]6C5)nc4)CC2)C3)C(C)(C)C)c(F)c1 (single isomer, unassigned) ... > 90%
C#Cc1ccc([C@H](C)NC(=O)[C@@H]2C[C@@H](O)CN2C(=O)[C@@H](NC(=O)N2CC3(CC(N4CCC(c5cnc(N6CCc7[nH]c8nnc(-c9ccccc9O)cc8c7[C@H]6C)nc5)CC4)C3)C2)C(C)(C)CCO)cc1 ... > 90%
CC(C)(C)[C@H](NC(=O)[C@H]1CCC2(CC1)C[C@H](N1CCC(c3cnc(N4CCN5c6cc(-c7ccccc7O)nnc6NC[C@H]5C4)nc3)CC1)C2)C(=O)N1C[C@H](O)C[C@H]1C(=O)NCC#Cc1ccc(Cl)cc1 (single isomer, unassigned) ... 50 to 70%
C#Cc1ccc(CNC(=O)[C@@H]2C[C@@H](O)CN2C(=O)[C@H](NC(=O)N2CC3(CC(N4CCC(c5cnc(N6CCc7[nH]c8nnc(-c9ccccc9O)cc8c7[C@H]6C)nc5)CC4)C3)C2)C(C)(C)CCOCC(=O)O)cc1 (single isomer, unassigned) ... < 50%
C#Cc1ccc(CNC(=O)[C@@H]2C[C@@H](O)CN2C(=O)[C@@H](NC(=O)[C@H]2CCC3(CC2)C[C@H](N2CCC(c4cnc(N5CCN6c7cc(-c8ccccc8O)nnc7NC[C@H]6C5)nc4)CC2)C3)C(C)(C)C)c(OCCCN(C)C)c1 (single isomer, unassigned) ... > 90%

## Task Reported Dmax, compound C#Cc1ccc(CNC(=O)[C@@H]2C[C@@H](O)CN2C(=O)[C@@H](NC(=O)N2CCCC(N3CCC(c4cnc(N5CCN6c7cc(-c8ccccc8O)nnc7NC[C@H]6C5)nc4)CC3)C2)C(C)(C)C)cc1 (mixture of isomers) : ____
## Result 70 to 90%

## Task Which measured Dmax value corresponds to C#Cc1cnc(CNC(=O)[C@@H]2C[C@@H](O)CN2C(=O)C(c2cc(OCCN3CCC(N4CCC(N5CCC(CN6CCN7c8cc(-c9ccccc9O)nnc8NC[C@H]7C6)CC5)CC4)CC3)no2)C(C)C)c(OC)c1 (some centres unmarked) ?
## Result > 90%

## Task Look at this compound and give its reported Dmax. C#Cc1ccc(CNC(=O)[C@@H]2C[C@@H](O)CN2C(=O)[C@@H](NC(=O)[C@H]2CCC3(CC2)C[C@H](N2CCN(c4cnc(N5CCN6c7cc(-c8ccccc8O)nnc7NC[C@H]6C5)nc4)CC2)C3)C(C)(C)CCO)c(Cl)c1 (single isomer, unassigned)
## Result > 90%

* * *

Molecular target: SMARCA4 (Homo sapiens)
Construct: SMARCA2/SMARCA4 protein degradation selectivity in MV4-11 cells; endogenous in cells; host or cells: MV4-11
Sequence (P51532 whole entry): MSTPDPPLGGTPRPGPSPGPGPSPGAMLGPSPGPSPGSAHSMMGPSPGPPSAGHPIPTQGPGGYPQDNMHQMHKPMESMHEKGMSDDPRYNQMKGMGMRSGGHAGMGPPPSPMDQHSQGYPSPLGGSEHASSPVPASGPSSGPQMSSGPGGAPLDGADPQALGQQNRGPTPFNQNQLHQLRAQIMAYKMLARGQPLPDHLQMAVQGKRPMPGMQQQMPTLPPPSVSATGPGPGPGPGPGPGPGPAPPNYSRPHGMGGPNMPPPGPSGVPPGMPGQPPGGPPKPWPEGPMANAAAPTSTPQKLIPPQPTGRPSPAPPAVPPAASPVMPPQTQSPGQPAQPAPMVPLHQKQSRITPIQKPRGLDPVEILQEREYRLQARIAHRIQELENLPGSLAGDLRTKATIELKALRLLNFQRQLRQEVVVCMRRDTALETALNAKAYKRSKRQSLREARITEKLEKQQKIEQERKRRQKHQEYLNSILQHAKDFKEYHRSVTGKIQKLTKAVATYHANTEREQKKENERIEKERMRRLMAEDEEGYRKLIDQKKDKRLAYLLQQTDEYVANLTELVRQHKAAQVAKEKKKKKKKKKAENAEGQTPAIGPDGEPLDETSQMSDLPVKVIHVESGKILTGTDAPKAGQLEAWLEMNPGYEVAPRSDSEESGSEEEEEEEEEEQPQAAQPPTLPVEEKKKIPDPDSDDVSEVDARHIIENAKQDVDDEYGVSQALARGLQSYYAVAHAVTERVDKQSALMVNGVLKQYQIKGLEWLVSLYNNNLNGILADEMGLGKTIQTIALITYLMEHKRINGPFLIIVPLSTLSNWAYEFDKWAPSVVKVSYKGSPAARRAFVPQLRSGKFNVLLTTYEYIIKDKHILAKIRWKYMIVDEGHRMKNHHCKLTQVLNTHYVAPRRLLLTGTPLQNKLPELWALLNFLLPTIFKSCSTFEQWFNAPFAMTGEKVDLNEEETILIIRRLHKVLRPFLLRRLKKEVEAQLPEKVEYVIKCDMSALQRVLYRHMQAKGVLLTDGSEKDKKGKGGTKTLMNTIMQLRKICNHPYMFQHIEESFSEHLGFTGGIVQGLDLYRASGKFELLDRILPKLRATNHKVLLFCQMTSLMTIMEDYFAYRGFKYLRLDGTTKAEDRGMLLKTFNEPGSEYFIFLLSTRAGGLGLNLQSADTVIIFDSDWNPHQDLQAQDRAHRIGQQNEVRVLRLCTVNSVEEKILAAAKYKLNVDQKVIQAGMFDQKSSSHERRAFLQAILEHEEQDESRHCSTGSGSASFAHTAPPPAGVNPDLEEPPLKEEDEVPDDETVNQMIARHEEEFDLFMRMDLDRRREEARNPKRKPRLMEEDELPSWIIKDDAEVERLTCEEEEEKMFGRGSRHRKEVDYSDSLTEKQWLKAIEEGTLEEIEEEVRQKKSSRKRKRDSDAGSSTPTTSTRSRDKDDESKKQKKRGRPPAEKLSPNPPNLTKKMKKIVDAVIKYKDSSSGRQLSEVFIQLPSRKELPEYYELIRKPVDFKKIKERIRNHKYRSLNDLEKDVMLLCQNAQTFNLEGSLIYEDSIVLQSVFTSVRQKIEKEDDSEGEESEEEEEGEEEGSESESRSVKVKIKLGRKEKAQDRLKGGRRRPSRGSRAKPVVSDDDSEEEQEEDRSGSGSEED
Test: SMARCA4 Western blot degradation in MV4-11 cells
Format: cell-based
Details: MV4-11 cells, 24 h; read-out: SMARCA4 MSD MV411 degradation 24 h: Mean external-Abs DC50
Protocol: Example 11. SMARCA2 and SMARCA4 Western Blot MV4-11 Degradation Cells were seeded into 6-well plates (MV4-11:4×10^6 cells/well/1 ml) and 1 ml of 2× compound solution was added into the well to make the final concentration and the plates were mixed well and incubated for 24 hours (No cytotoxicity was observed). The cell were collected with media and spun at 3000 rpm for 5 minutes. […] The membrane was washed three times with 5 minutes each and lastly the LiCOR was read. […]
Value Kind: DC50

For orientation, consider the following solved cases.
CC(C)C(C(=O)N1C[C@H](O)C[C@H]1C(=O)NCc1ccc(C#N)cc1)c1cc(N2CC3(CC(N4CCC(c5cnc(N6CCN7c8cc(-c9ccccc9O)nnc8NC[C@H]7C6)nc5)CC4)C3)C2)no1 (stereo partly drawn) ... > 100 nM
Cc1ncsc1-c1ccc(CNC(=O)[C@@H]2C[C@@H](O)CN2C(=O)[C@@H](NC(=O)[C@H]2CCC3(CC2)C[C@H](N2CCC4(CC2)CN(C(=O)N2CCN5c6cc(-c7ccccc7O)nnc6NC[C@H]5C2)CCO4)C3)C(C)(C)C)cc1 (single isomer, unassigned) [I-93] ... > 100 nM

Note: attention shifts to another entry.
## Task Give its DC50 value. Item: C#Cc1ccc(CNC(=O)[C@@H]2C[C@@H](O)CN2C(=O)[C@@H](NC(=O)N2CC3(CC(N4CCC(c5cnc(N6CCc7[nH]c8nnc(-c9ccccc9O)cc8c7[C@H]6C)nc5)CC4)C3)C2)C(C)(C)C)c(C)c1
## Result > 100 nM

* * *

Molecular target: SMARCA2 (Homo sapiens)
Experiment: SMARCA2 Western blot degradation in MV4-11 cells
Assay type: cell-based
Parameters: SMARCA2/SMARCA4 protein degradation selectivity in MV4-11 cells; endogenous in cells; host or cells: MV4-11
Conditions: SMARCA2/4 selectivity, MV4-11 cells
Value Kind: Selectivity in MV411

// below: answered molecules
C#Cc1ccc(CNC(=O)[C@@H]2C[C@@H](O)CN2C(=O)[C@@H](NC(=O)N2CC3(CC(N4CCC(N5CCC(N6CCc7[nH]c8nnc(-c9ccccc9O)cc8c7[C@@H]6C)CC5)CC4)C3)C2)C(C)(C)C)cc1 ... D (D (<10 fold))
C#Cc1ccc(CNC(=O)[C@@H]2C[C@@H](O)CN2C(=O)[C@@H](NC(=O)C2CC3(C2)CN(c2cnc(N4CCC(N5CCN6c7cc(-c8ccccc8O)nnc7NC[C@H]6C5)CC4)cn2)C3)C(C)(C)C)cc1 ... C (C (10-100 fold))
C#Cc1ccc(CNC(=O)[C@@H]2C[C@@H](O)CN2C(=O)[C@@H](NC(=O)N2CC3(CC(N4CCC(c5cnc(N6CCc7[nH]c8nnc(-c9ccccc9O)cc8c7[C@H]6C)nc5)CC4)C3)C2)C(C)(C)CCN2CCNCC2)cc1 ... C (C (10-100 fold))
Cc1ncsc1-c1ccc(CNC(=O)[C@@H]2C[C@@H](O)CN2C(=O)[C@@H](NC(=O)N2CC3(CCC(N4CCC(c5cnc(N6CCN7c8cc(-c9ccccc9O)nnc8NC[C@H]7C6)nc5)CC4)CC3)C2)C(C)(C)C)cc1 ... D (D (<10 fold))

## Task Form field: reported Selectivity in MV411 of C#Cc1ccc(CNC(=O)[C@@H]2C[C@@H](O)CN2C(=O)[C@@H](NC(=O)N2CC3(CC(N4CCC(c5cnc(N6CCc7[nH]c8nnc(-c9ccccc9O)cc8c7[C@H]6C)nc5)CC4)C3)C2)C(C)(C)C)c(OCCO)c1
## Result C (C (10-100 fold))

## Task Given C#Cc1cnc(CNC(=O)[C@@H]2C[C@@H](O)CN2C(=O)[C@@H](NC(=O)[C@H]2CCC3(CC2)C[C@H](N2CCC(c4cnc(N5CCN6c7cc(-c8ccccc8O)nnc7NC[C@H]6C5)nc4)CC2)C3)C(C)(C)C)c(OC)c1 (single isomer, unassigned) [I-298] , state its recorded Selectivity in MV411.
## Result D (D (<10 fold))

## Task Which measured Selectivity in MV411 value corresponds to C#Cc1ccc(CNC(=O)[C@@H]2C[C@@H](O)CN2C(=O)[C@@H](NC(=O)N2CCN(C[C@@H]3CCN(c4cnc(N5CCc6[nH]c7nnc(-c8ccccc8O)cc7c6[C@H]5C)nc4)C3)CC2)C(C)(C)C)cc1 (single isomer, unassigned) ?
## Result C (C (10-100 fold))

* * *

Molecular target: SMARCA2 (Homo sapiens)
Assay: SMARCA2 Western blot degradation in MV4-11 cells
Type: cell-based
Design: SMARCA2/SMARCA4 protein degradation selectivity in MV4-11 cells; endogenous in cells; host or cells: MV4-11
Settings: SMARCA2/4 selectivity, MV4-11 cells
Value Kind: Selectivity in MV411

C#Cc1ccc(CNC(=O)[C@@H]2C[C@@H](O)CN2C(=O)[C@@H](NC(=O)[C@H]2CC[C@H](CN3CCC(c4cnc(N5CCN6c7cc(-c8ccccc8O)nnc7NC[C@H]6C5)nc4)CC3)CC2)C(C)(C)C)cc1 [I-294] ... C (C (10-100 fold))
C#Cc1ccc(CNC(=O)[C@@H]2C[C@@H](O)CN2C(=O)[C@@H](NC(=O)N2CC3(CC(N4CCC(c5cnc(N6CCc7[nH]c8nnc(-c9ccccc9O)cc8c7[C@H]6C)nc5)CC4)C3)C2)C(C)(C)C)c(OCCCC(=O)O)c1 [I-145] ... C (C (10-100 fold))
C#Cc1ccc(CNC(=O)[C@@H]2C[C@@H](O)CN2C(=O)[C@@H](NC(=O)N2CC3(CC(N4CCC(c5cnc(N6CCc7[nH]c8nnc(-c9ccccc9O)cc8c7[C@H]6C)nc5)CC4)C3)C2)C(C)(C)CCN2CCN[C@H](C(=O)O)C2)cc1 [I-344] ... C (C (10-100 fold))

# credit: patent US20250170248A1
